// provenance: patent CN114437215A

Molecular target: T1, 食蟹猴CD38胞外段Flag标签蛋白 cyno-CD38-ECD-Flag (cynomolgus monkey, UniProt Q5VAN0 44-301)
T1 construct: range 44-301; No linker between CD38 and the tag is stated; also called cyno-CD38-Flag
T1 sequence: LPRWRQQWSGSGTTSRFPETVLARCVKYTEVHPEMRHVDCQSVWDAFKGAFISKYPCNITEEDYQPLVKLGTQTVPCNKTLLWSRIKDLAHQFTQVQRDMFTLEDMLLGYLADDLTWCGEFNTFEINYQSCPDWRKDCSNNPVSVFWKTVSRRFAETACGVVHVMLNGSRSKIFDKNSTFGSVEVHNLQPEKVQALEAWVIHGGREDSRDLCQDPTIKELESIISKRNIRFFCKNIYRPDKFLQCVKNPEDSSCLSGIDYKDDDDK
Experiment: SPR, Biacore T200; antibody captured on Protein A CM5 chip, cyno-CD38-Flag as analyte
assay.readout: kon (M⁻¹ s⁻¹)
Express the result in M⁻¹ s⁻¹ but write the number alone.

Problem: Recorded kon for 人源化抗人CD38单克隆抗体145H (antibody, human IgG1, kappa, V domains shown, also called 145号抗体的人源化抗体) VH: QVQLVQSGAEVKKPGASVKVSCKASGYTFTNYLIDWVRQAPGQGLEWIGLINPGSGSTKYNEKFKGRVTLTADKSTSTAYMELSSLRSEDTAVYYCAKTGTLPYWGQGTLVTVSS VL: DIQMTQSPSSLSASVGDRVTITCKASQNVGTSVAWYQQKPGKAPKLLIYSTSYRSSGVPSRFSGSGSGTDFTLTISSLQPEDFATYYCQQYGSYPLTFGQGTKVEIKR , please?
Solution: 97800
